- Study system: MAGE-A11:PCF11 interaction (GST-MAGE-A11 and FAM-PCF11_4) (Homo sapiens, UniProt P43364)
- Construct: GST-MAGE-A11 MHD (human MAGE-A11 MHD amino acid 218-429); made in house; host or cells: E. coli BL21(DE3)
- Sequence (P43364 218-429): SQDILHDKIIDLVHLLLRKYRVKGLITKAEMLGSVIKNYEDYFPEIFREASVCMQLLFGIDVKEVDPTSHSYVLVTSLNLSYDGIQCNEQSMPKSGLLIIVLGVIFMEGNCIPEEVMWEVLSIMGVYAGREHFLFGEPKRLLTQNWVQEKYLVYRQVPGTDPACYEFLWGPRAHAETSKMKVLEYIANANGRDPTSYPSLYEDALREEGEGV
- Protocol: TR-FRET primary / single point screen at 15 µM
- Type: binding
- Reported conditions: single point TR-FRET screening of 797 quinoline compounds against MAGE-A11:PCF11
Readout kind: percent inhibition (TR-FRET)
Give the value as a plain number.

Below: 3 molecules and their reported percent inhibition (TR-FRET).
>>> df
                                   molecule  experimental_value
0  COc1ccc2nc3cc(Cl)ccc3c(NCCCNCc3cc(C(F)(F)F)ccc3OC)c2c1            -290.163
1  COc1ccc2nc3cc(Cl)ccc3c(NCCCNCc3ccncc3)c2c1            -127.586
2       Clc1ccc2c(NC3CCN(CC4CC4)CC3)ccnc2c1               3.973

Which percent inhibition (TR-FRET) is listed for COc1ccc2nc3cc(Cl)ccc3c(NCCCNCc3ccc4ccccc4c3)c2c1 ?
-109.452

Given COc1ccc2nc3cc(Cl)ccc3c(NCCCNCc3cccc4c3OCO4)c2c1 , state its recorded percent inhibition (TR-FRET).
-257.115

Entry CCCN(CCCNc1c2ccc(Cl)cc2nc2ccc(OC)cc12)Cc1ccccc1 : reported percent inhibition (TR-FRET) = ?
-127.926

Given the molecule COc1cccc(F)c1CN(CCCCNc1ccnc2cc(Cl)ccc12)Cc1ccccc1 , what is its reported percent inhibition (TR-FRET)?
5.094

Which percent inhibition (TR-FRET) value is on record for Clc1ccc2c(NCCCCN(CCCc3ccccc3)Cc3ccccc3)ccnc2c1 ?
27.8155

Item CCc1ccc(S(=O)(=O)c2cnc3ccccc3c2N2CCN(c3ccccc3)CC2)cc1 has what recorded percent inhibition (TR-FRET)?
-21.2074

What does the record list as percent inhibition (TR-FRET) for O=[N+]([O-])c1cccc(CN(CCCCNc2ccnc3cc(Cl)ccc23)Cc2ccccc2)c1 ?
24.3707

Quick one: percent inhibition (TR-FRET) of COc1ccc(CN2CCC(Nc3ccnc4cc(Cl)ccc34)CC2)cc1 ?
23.7178

State the recorded percent inhibition (TR-FRET) for this entry: CCc1ccc2ncc(S(=O)(=O)c3ccc(OC)cc3)c(N3CCN(C)CC3)c2c1
-5.969
